test: Inhibition of human beta-tryptase
pKi: −log10 of the molar value.
measure: pKi

1. CC(=O)NCC(=O)N[C@@H](CCCN=C(N)N)C(=O)c1nc2ccccc2s1 ... 6.33

P. CC(=O)N1C[C@H](O)C[C@@H]1C(=O)N[C@@H](CCCNC(=N)N)C(=O)c1nc2ccccc2s1
Q. C=CCOC(=O)N[C@@H](CC1CCNC1)C(=O)c1noc(Cc2ccc(C(=O)NC3Cc4ccccc4C3)cc2)n1 (stereo partly drawn)
Thinking about recorded pKi values, which is higher, P or Q ? Please respond with the label that marks your chosen entry.
Q

====

assay: Selectivity for rat FAAH over triacylglycerol hydrolase
measure: Selectivity ratio

1) CCCCCCCCCCCC(=O)c1nc2ncccc2o1 ... 100

1. CCCCCCCC/C=C\CCCCCCCC(=O)c1nnc(-c2ccccn2)o1
2. O=C(CCCCCCCCc1ccccc1)c1nnc(-c2ccccn2)o1
Hello, I am sorting some records. Could you say if 1 or 2 has the smaller Selectivity ratio value? // return label of chosen record
2
(2: 600, 1: 5000)

====

The following compounds are listed with their measured pKi values.
molecular target: Trifunctional purine biosynthetic protein adenosine-3 (Homo sapiens, UniProt P22102); test: Inhibition of human glycinamide ribonucleotide transformylase
Sequence (P22102 whole entry): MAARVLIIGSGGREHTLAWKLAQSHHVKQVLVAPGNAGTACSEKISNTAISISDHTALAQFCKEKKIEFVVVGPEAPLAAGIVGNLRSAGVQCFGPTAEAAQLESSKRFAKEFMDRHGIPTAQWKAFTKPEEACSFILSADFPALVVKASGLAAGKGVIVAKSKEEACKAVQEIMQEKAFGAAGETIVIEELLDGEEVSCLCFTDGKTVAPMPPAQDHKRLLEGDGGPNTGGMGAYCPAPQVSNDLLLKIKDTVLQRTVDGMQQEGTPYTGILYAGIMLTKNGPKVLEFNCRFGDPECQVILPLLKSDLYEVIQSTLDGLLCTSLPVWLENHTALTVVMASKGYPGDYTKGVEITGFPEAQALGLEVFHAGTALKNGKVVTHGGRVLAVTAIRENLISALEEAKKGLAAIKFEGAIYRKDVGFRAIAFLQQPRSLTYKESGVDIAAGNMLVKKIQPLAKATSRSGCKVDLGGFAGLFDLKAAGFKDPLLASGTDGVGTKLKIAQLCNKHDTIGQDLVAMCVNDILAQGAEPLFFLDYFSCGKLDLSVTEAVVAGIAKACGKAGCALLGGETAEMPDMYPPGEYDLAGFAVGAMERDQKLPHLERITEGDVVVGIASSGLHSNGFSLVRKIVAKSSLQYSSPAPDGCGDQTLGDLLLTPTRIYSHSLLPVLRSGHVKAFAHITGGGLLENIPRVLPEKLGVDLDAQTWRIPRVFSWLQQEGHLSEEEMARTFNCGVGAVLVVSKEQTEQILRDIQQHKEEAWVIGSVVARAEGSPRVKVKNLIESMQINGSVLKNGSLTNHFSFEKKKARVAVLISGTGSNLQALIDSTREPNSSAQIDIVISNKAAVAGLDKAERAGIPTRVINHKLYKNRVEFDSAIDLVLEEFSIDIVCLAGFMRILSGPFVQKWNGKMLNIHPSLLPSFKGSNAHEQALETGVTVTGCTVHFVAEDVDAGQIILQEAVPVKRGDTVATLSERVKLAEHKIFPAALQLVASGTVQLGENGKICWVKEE
Kindly note that pKi refers to -log10 of the concentration in mol/L and answer with the value alone.

1) Nc1nc(N)c(CCCC(C(=O)c2nc3ccccc3o2)c2ccc(C(=O)N[C@@H](CCC(=O)O)C(=O)O)cc2)c(=O)[nH]1 (stereo partly drawn) ... 6.22

Attention now shifts to the item below.
Trifunctional purine biosynthetic protein adenosine-3 (Homo sapiens, UniProt P22102) assay, compound Nc1nc(N)c(CCCC(c2ccc(C(=O)N[C@@H](CCC(=O)O)C(=O)O)cc2)C(O)c2nc3ccccc3o2)c(=O)[nH]1 (stereo partly drawn) , recorded pKi = 5.74

====

assay: Selectivity for rat FAAH over triacylglycerol hydrolase
measure: Selectivity ratio

Example entries and their recorded answers appear below.
1. Cc1ccnc(-c2cnc(C(=O)CCCCCCc3ccccc3)o2)c1 ... 2000
2. O=C(CCCCCc1ccccc1)c1nc2ncccc2o1 ... 10

I. CCCCCCCC/C=C\CCCCCCCC(=O)c1nc2ncccc2o1
II. O=C(CCCc1ccccc1)c1nc2ncccc2o1
So which one has the bigger Selectivity ratio here, I or II ? Kindly give the label for the entry you pick.
I
